What IC50 at 72 h was measured for each of the following?
# Procedure Text: Cytotoxicity assay (CellTiter-Glo cell viability, 72 hours)
# Format: cell-based
# Test Settings: African green monkey; Vero cells, 72 hours, growth inhibition; read-out: Cytotoxicity IC50
*1 amine or outer side, *2 acyl side, *3 side chain or, on linkers, in order; H or OH if unused. Where a SMILES comes first, the peptide text is derived from it. Bridges are numbered along the chain shown (N, C = ends). [ ]: non-standard residue; d: D form. The star is where a group is joined. Phe(3,5-F2) = N[C@@H](Cc1cc(F)cc(F)c1)C(=O)O; Morpholine(3S-CO) = O=C(O)[C@@H]1COCCN1; Pro(4S-Me) = C[C@@H]1CN[C@H](C(=O)O)C1; Pro(4R-Me) = C[C@H]1CN[C@H](C(=O)O)C1; NMeaThr = CN[C@H](C(=O)O)[C@H](C)O; Hyp = O=C(O)[C@@H]1C[C@@H](O)CN1; NMeT = CN[C@H](C(=O)O)[C@@H](C)O; Heptenoyl(2E) = CCCC/C=C/C(=O)*; NH(4-Me-phenyl) = Cc1ccc(N*)cc1; aThr = C[C@H](O)[C@H](N)C(=O)O; Pip = O=C(O)[C@@H]1CCCCN1; CO = O=C([*:1])[*:2]
The answer is to be given in µM; state only the numeric part.

IN: Recorded IC50 at 72 h for Cc1ccc(NC(=O)N[C@@H](Cc2cc(F)cc(F)c2)C(=O)N[C@@H]2C(=O)N3CCC[C@H]3C(=O)N(C)[C@@H]([C@H](C)O)C(=O)N[C@@H](C)C(=O)N3C[C@@H](C)C[C@H]3C(=O)O[C@H]2C)cc1 [Compound 202] ({NH(4-Me-phenyl)-CO}-[Phe(3,5-F2)][aThr]P[NMeaThr]A[Pro(4S-Me)]; ester 2-C) , please?
OUT: 55.7

IN: Recorded IC50 at 72 h for CCCC/C=C/C(=O)N[C@@H](Cc1cc(F)cc(F)c1)C(=O)N[C@@H]1C(=O)N2C[C@H](O)C[C@H]2C(=O)N2CCCC[C@H]2C(=O)N[C@@H](C)C(=O)N2C[C@H](C)C[C@H]2C(=O)O[C@H]1C [Compound 301] ({Heptenoyl(2E)}-[Phe(3,5-F2)][aThr][Hyp][Pip]A[Pro(4R-Me)]; ester 2-C) , please?
OUT: 61.1

IN: Recorded IC50 at 72 h for Cc1ccc(NC(=O)N[C@@H](Cc2cc(F)cc(F)c2)C(=O)N[C@@H]2C(=O)N3CCC[C@H]3C(=O)N(C)[C@@H]([C@@H](C)O)C(=O)N[C@@H](C)C(=O)N3C[C@H](C)C[C@H]3C(=O)O[C@H]2C)cc1 [Compound 38] ({NH(4-Me-phenyl)-CO}-[Phe(3,5-F2)][aThr]P[NMeT]A[Pro(4R-Me)]; ester 2-C) , please?
OUT: 46.1

IN: Recorded IC50 at 72 h for Cc1ccc(NC(=O)N[C@@H](Cc2cc(F)cc(F)c2)C(=O)N[C@@H]2C(=O)N3CCC[C@H]3C(=O)N3CCCC[C@H]3C(=O)N[C@@H](C)C(=O)N3C[C@@H](C)C[C@H]3C(=O)O[C@H]2C)cc1 [Compound 200] ({NH(4-Me-phenyl)-CO}-[Phe(3,5-F2)][aThr]P[Pip]A[Pro(4S-Me)]; ester 2-C) , please?
OUT: 26.7

IN: Recorded IC50 at 72 h for Cc1ccc(NC(=O)N[C@@H](Cc2cc(F)cc(F)c2)C(=O)N[C@@H]2C(=O)N3CCC[C@H]3C(=O)N3CCOC[C@H]3C(=O)N[C@@H](C)C(=O)N3C[C@H](C)C[C@H]3C(=O)O[C@H]2C)cc1 [Compound 210] ({NH(4-Me-phenyl)-CO}-[Phe(3,5-F2)][aThr]P[Morpholine(3S-CO)]A[Pro(4R-Me)]; ester 2-C) , please?
OUT: 5.82

----------
What MIC was measured for each of the following?
# System: Streptococcus pneumoniae, R6
*1 amine or outer side, *2 acyl side, *3 side chain or, on linkers, in order; H or OH if unused. Where a SMILES comes first, the peptide text is derived from it. Bridges are numbered along the chain shown (N, C = ends). [ ]: non-standard residue; d: D form. The star is where a group is joined. Phe(3,5-F2) = N[C@@H](Cc1cc(F)cc(F)c1)C(=O)O; Pro(4R-Me) = C[C@H]1CN[C@H](C(=O)O)C1; Hyp = O=C(O)[C@@H]1C[C@@H](O)CN1; NH(4-Me-phenyl) = Cc1ccc(N*)cc1; aThr = C[C@H](O)[C@H](N)C(=O)O; Pip = O=C(O)[C@@H]1CCCCN1; CO = O=C([*:1])[*:2]

IN: API: value(readout=MIC, system=Streptococcus pneumoniae, R6) for record Cc1ccc(NC(=O)N[C@@H](Cc2cc(F)cc(F)c2)C(=O)N[C@@H]2C(=O)N3C[C@H](O)C[C@H]3C(=O)N3CCCC[C@H]3C(=O)N[C@@H](C)C(=O)N3C[C@H](C)C[C@H]3C(=O)O[C@H]2C)cc1 [Compound 216] ({NH(4-Me-phenyl)-CO}-[Phe(3,5-F2)][aThr][Hyp][Pip]A[Pro(4R-Me)]; ester 2-C)
OUT: 0.001 µM

IN: API: value(readout=MIC, system=Streptococcus pneumoniae, R6) for record C[C@@H]1C[C@H]2C(=O)OC[C@H](NC(=O)[C@H](Cc3cc(F)cc(F)c3)NC(=O)Nc3ccc4c(c3)OCO4)C(=O)N3CCC[C@H]3C(=O)N3CCCC[C@H]3C(=O)N[C@@H](C)C(=O)N2C1 [Compound 195]
OUT: 0.1 µM

IN: API: value(readout=MIC, system=Streptococcus pneumoniae, R6) for record Cc1ccc(NC(=O)N[C@@H](Cc2cc(F)cc(F)c2)C(=O)N[C@H]2COC(=O)C3C[C@H](C)CN3C(=O)[C@H](C)NC(=O)C3CCCCN3C(=O)C3CCCN3C2=O)cc1 (stereo partly shown) [Compound 45]
OUT: 0.1 µM

IN: API: value(readout=MIC, system=Streptococcus pneumoniae, R6) for record C[C@@H]1C[C@H]2C(=O)OC[C@H](NC(=O)[C@H](Cc3ccccc3)NC(=O)Nc3ccc4c(c3)OCO4)C(=O)N3CCC[C@H]3C(=O)N3CCCC[C@H]3C(=O)N[C@@H](C)C(=O)N2C1 [Compound 194]
OUT: < 0.2 µM

----------
What solubility was measured for each of the following?
# Procedure Text: physchem
# Test Settings: 22 °C, aqueous buffer, kinetic from dmso stock
*1 amine or outer side, *2 acyl side, *3 side chain or, on linkers, in order; H or OH if unused. Where a SMILES comes first, the peptide text is derived from it. Bridges are numbered along the chain shown (N, C = ends). [ ]: non-standard residue; d: D form. The star is where a group is joined. X15 = O=C([C@@H]1C[C@@H](OP(=O)(O)O)CN1[*:1])[*:2]; Phe(3,5-F2) = N[C@@H](Cc1cc(F)cc(F)c1)C(=O)O; NMepT = CN[C@H](C(=O)O)[C@@H](C)OP(=O)(O)O; Morpholine(3S-CO) = O=C(O)[C@@H]1COCCN1; Pro(4S-Me) = C[C@@H]1CN[C@H](C(=O)O)C1; Pro(4R-Me) = C[C@H]1CN[C@H](C(=O)O)C1; NH(3,4-Me2-phenyl) = Cc1ccc(N*)cc1C; NH(4-Me-phenyl) = Cc1ccc(N*)cc1; aThr = C[C@H](O)[C@H](N)C(=O)O; Pip = O=C(O)[C@@H]1CCCCN1; NMeA = CN[C@@H](C)C(=O)O; CO = O=C([*:1])[*:2]
The answer is to be given in µM; state only the numeric part.

IN: Recorded solubility for Cc1ccc(NC(=O)N[C@@H](Cc2cc(F)cc(F)c2)C(=O)N[C@@H]2C(=O)N3C[C@H](OP(=O)(O)O)C[C@H]3C(=O)N3CCOC[C@H]3C(=O)N[C@@H](C)C(=O)N3C[C@H](C)C[C@H]3C(=O)O[C@H]2C)cc1C [Compound 189] ({NH(3,4-Me2-phenyl)-CO}-[Phe(3,5-F2)][aThr][X15][Morpholine(3S-CO)]A[Pro(4R-Me)]; ester 2-C) , please?
OUT: 117

IN: Recorded solubility for Cc1ccc(NC(=O)N[C@@H](Cc2cc(F)cc(F)c2)C(=O)N[C@@H]2C(=O)N3C[C@H](OP(=O)(O)O)C[C@H]3C(=O)N(C)[C@@H](C)C(=O)N[C@@H](C)C(=O)N3C[C@@H](C)C[C@H]3C(=O)O[C@H]2C)cc1 [Compound 187] ({NH(4-Me-phenyl)-CO}-[Phe(3,5-F2)][aThr][X15][NMeA]A[Pro(4S-Me)]; ester 2-C) , please?
OUT: 118

IN: Recorded solubility for Cc1ccc(NC(=O)N[C@@H](Cc2cc(F)cc(F)c2)C(=O)N[C@@H]2C(=O)N3CCC[C@H]3C(=O)N(C)[C@@H]([C@@H](C)OP(=O)(O)O)C(=O)N[C@@H](C)C(=O)N3C[C@@H](C)C[C@H]3C(=O)O[C@H]2C)cc1 [Compound 188] ({NH(4-Me-phenyl)-CO}-[Phe(3,5-F2)][aThr]P[NMepT]A[Pro(4S-Me)]; ester 2-C) , please?
OUT: 107

IN: Recorded solubility for Cc1ccc(NC(=O)N[C@@H](Cc2cc(F)cc(F)c2)C(=O)N[C@@H]2C(=O)N3C[C@H](OP(=O)(O)O)C[C@H]3C(=O)N3CCCC[C@H]3C(=O)N[C@@H](C)C(=O)N3C[C@H](C)C[C@H]3C(=O)O[C@H]2C)cc1 [Compound 190] ({NH(4-Me-phenyl)-CO}-[Phe(3,5-F2)][aThr][X15][Pip]A[Pro(4R-Me)]; ester 2-C) , please?
OUT: 113
